target: FimH lectin domain (Escherichia coli); experiment: biochemical; type: binding, E. coli strain J96; details: Kd SPR (nM), solution affinity by SPR competition; Tables 1-3
Sequence (P08191 22-179 limits assumed): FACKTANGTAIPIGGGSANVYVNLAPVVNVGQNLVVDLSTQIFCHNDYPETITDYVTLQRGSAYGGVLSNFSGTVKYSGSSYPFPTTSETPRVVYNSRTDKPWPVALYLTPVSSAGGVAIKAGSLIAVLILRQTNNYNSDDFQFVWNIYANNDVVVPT
Endpoint: Kd (nM)
Record the value in nM, omitting the unit from your answer.

Check out these entries, answers already filled in.
[[record]]
smiles_data = "OC[C@H]1O[C@H](OCCCc2ccccc2-c2ccccc2)[C@@H](O)[C@@H](O)[C@@H]1O"
observed_value = 13

[[record]]
smiles_data = "O=[N+]([O-])c1ccc(C#CCO[C@H]2O[C@H](CO)[C@@H](O)[C@H](O)[C@@H]2O)cc1"
observed_value = 816

[[record]]
smiles_data = "OC[C@H]1O[C@H](OCCCc2ccc(-c3ccccc3)cc2)[C@@H](O)[C@@H](O)[C@@H]1O"
observed_value = 10

[[record]]
smiles_data = "COc1ccc(C#CCO[C@H]2O[C@H](CO)[C@@H](O)[C@H](O)[C@@H]2O)cc1"
observed_value = 53

[[record]]
smiles_data = "CCCSCCC[C@H]1O[C@H](CO)[C@@H](O)[C@H](O)[C@@H]1O"
observed_value = 36

[[record]]
smiles_data = "CCSCCC[C@H]1O[C@H](CO)[C@@H](O)[C@H](O)[C@@H]1O"
observed_value = 78

[[record]]
smiles_data = "OCC#Cc1ccc(O[C@H]2O[C@H](CO)[C@@H](O)[C@H](O)[C@@H]2O)cc1"
observed_value = 36.9


Query :: Recall the recorded Kd for `OC[C@H]1O[C@H](CCCSCc2ccccc2)[C@@H](O)[C@@H](O)[C@@H]1O` with FimH lectin domain (Escherichia coli) and state it.
Result :: 25

====

Below: a set of entries, each annotated with reported Kd.
biological target: FimH lectin domain (Escherichia coli); assay: biochemical; type: binding, E. coli strain J96; conditions: Kd SPR (nM), solution affinity by SPR competition; Tables 1-3
Give the number; nM is assumed, so skip it.

Query :: Dear colleague, I am looking for the recorded Kd of the following molecule: `OC[C@H]1O[C@H](OCCCc2ccccc2)[C@@H](O)[C@@H](O)[C@@H]1O`
Result :: 59

Query :: Any idea what Kd was measured for `OC[C@H]1O[C@H](OCCCSCc2ccccc2)[C@@H](O)[C@@H](O)[C@@H]1O` ?
Result :: 16

Query :: Can you share its Kd? I mean this molecule: `OC[C@H]1O[C@H](OC/C=C/c2ccc(-c3ccccc3)cc2)[C@@H](O)[C@@H](O)[C@@H]1O`
Result :: 3

Query :: Name the recorded Kd for `CC(C)SCCC[C@H]1O[C@H](CO)[C@@H](O)[C@H](O)[C@@H]1O` .
Result :: 32

Query :: // returns reported Kd for input `OC[C@H]1O[C@H](OCC#Cc2cccs2)[C@@H](O)[C@@H](O)[C@@H]1O`
Result :: 133

Query :: Endpoint output: Kd of `OC[C@H]1O[C@H](OCC#Cc2cccc3ccccc23)[C@@H](O)[C@@H](O)[C@@H]1O` . Value?
Result :: 120

Query :: Any idea what its Kd is? The molecule is `OC[C@H]1O[C@H](OCC#Cc2ccc(-c3ccccc3)cc2)[C@@H](O)[C@@H](O)[C@@H]1O`
Result :: 405

Query :: Quick one: Kd of NCCCCCCCCO[C@H]1O[C@H](CO)[C@@H](O)[C@H](O)[C@@H]1O [Compound 5b, 8-aminooctyl α-D-mannopyranoside] ?
Result :: 18

Query :: Entry under review: `CCCCSCCCO[C@H]1O[C@H](CO)[C@@H](O)[C@H](O)[C@@H]1O` . Reported Kd?
Result :: 22
